- assayed-system: APE1 (Homo sapiens, UniProt P27695)
- Construct: made in house
- Sequence (P27695 whole entry): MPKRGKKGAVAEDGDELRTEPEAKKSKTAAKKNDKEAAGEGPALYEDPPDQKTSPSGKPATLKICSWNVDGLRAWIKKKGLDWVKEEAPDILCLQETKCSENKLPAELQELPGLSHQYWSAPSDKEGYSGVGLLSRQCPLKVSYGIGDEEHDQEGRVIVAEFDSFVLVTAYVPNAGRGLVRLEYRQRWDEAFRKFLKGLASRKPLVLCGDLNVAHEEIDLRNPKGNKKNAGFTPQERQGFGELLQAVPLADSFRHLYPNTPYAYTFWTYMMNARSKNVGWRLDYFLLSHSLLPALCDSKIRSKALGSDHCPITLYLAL
- method-summary: Gel-based APE1 incision assay with fluorescence (TAMRA) detection
- Type: biochemical
- assay-conditions: entries 113-223: fluorophore detection, estimated IC50; read-out: Gel-based electrophoretic separation assay with fluorophore detection, estimated IC50 (column headed Radiotracer Assay (%Activity))
observable: pIC50
Schema: pIC50 number; meaning minus log10 of the concentration expressed in molar units.

**Q:** Looking for the measured pIC50 of COc1ccc(OCCOc2ccc(/C=C3\C(=N)N4N=C(C)SC4=NC3=O)cc2)cc1 [MLS001359901] , can you help?
**A:** 5.00

**Q:** Field entry: CC1(C)CC2CC(C)(CN2C(=O)COC(=O)c2ccc(O)cc2O)C1 (centres unmarked) [MLS002251953]
**A:** 4.80

**Q:** Query O=C(CSc1nnc(CNC(=O)c2c(F)cccc2F)o1)NCc1ccco1 [MLS001235900] next
**A:** 4.90

**Q:** Same thing, different compound: COc1ccc(C(=O)Nc2ccnn2C2CCN(Cc3ccc4nonc4c3)CC2)cc1 [MLS001090278]
**A:** 5.00

**Q:** Follow-up entry: COc1ccc2nc3cc(Cl)ccc3c(Nc3cc(CN4CCCC4)c(O)c(CN4CCCC4)c3)c2n1 [MLS001306480, pyronaridine, reference compound]
**A:** 4.90

**Q:** Could you do the same for O=C(CSc1nc2sc3c(c2c(=O)n1-c1ccccc1)CCCC3)NN=Cc1ccccc1C(=O)O [MLS001147809] , please?
**A:** 4.90

**Q:** Then this compound: O=C(C[C@@H]1C/C=C\C[C@H](NC(=O)OCC2c3ccccc3-c3ccccc32)C(=O)OC[C@@H]2CCCN2C1=O)NCCO [MLS002320455]
**A:** 4.65

**Q:** And CCNc1nc(NCC)n2c(SCC(=O)Nc3cccc(F)c3)nnc2n1 [MLS001234358] ?
**A:** 4.95

###

- assayed-system: APE1 (Homo sapiens, UniProt P27695)
- Construct: made in house
- method-summary: Fluorogenic kinetic qHTS APE1 incision assay (primary screen and retest of cherrypicked samples);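 further: purified APE1 cleaving a fluorophore/dark-quencher labelled 17-mer duplex DNA bearing a tetrahydrofuran AP site, fluorescence rise followed kinetically over the first 2 min, inhibition normalized to controls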
- Type: biochemical
- assay-conditions: retest of cherrypicked sample; read-out: APE1 Retest IC50
pIC50: −log10 of the molar value.
Please enter yes where pIC50 is greater than or equal to 5, and no where it is lower.

**Q:** Does COc1ccc2nc3cc(Cl)ccc3c(Nc3cc(CN4CCCC4)c(O)c(CN4CCCC4)c3)c2n1 [MLS001306480, pyronaridine, reference compound] have a reported pIC50 of at least 5?
**A:** yes

**Q:** Consider next the molecule `O=C(O[C@@H]1OC2COC(=O)c3cc(O)c(O)c(O)c3-c3c(cc(O)c(O)c3O)C(=O)O[C@@H]([C@H]1O)[C@@H]2O)c1cc(O)c(O)c(O)c1` in the same way.
**A:** yes

**Q:** Also need `Cc1cccc(C)c1NC(=O)CSc1nnc(-c2ccco2)c(-c2ccco2)n1` , thanks.
**A:** yes

**Q:** Please answer likewise for CCOC(=O)C1CCCN(C(=O)c2cc(-c3ccco3)nc3ccccc23)C1 (stereo not shown)
**A:** no

**Q:** Ok, now `CC(=O)c1ccc(NC(=O)c2ccc3nc(-c4ccco4)c(-c4ccco4)nc3c2)cc1`
**A:** yes

**Q:** Record: CCOC(=O)C1=C(C)N=c2s/c(=C\c3ccc(OCC(=O)O)cc3)c(=O)n2C1c1ccc(Cl)cc1 (stereo not shown)
**A:** no

**Q:** Next entry: `CCCSC1=N/C(=C\C=C\c2ccco2)C(=O)S1`
**A:** no

**Q:** // query: `O=C(NN1C(=O)/C(=C/C=C/c2ccco2)SC1=S)c1ccncc1`
**A:** yes

**Q:** What about `Nc1ccc2c(c1Cl)C(=O)c1ccc(N)c(Cl)c1C2=O` ?
**A:** yes

**Q:** Next molecule up: `CC(C)(C)OC(=O)C[C@@H]1C/C=C\C[C@@H](CC(=O)NCCO)C(=O)N[C@H](Cc2c[nH]c3ccccc23)COC1=O`
**A:** no

**Q:** And CCN(CC)C(=O)CC(c1cc(OC)c(OC)c(OC)c1)c1c(OC)cc(OC)c2c(-c3ccccc3)cc(=O)oc12 (stereo not shown) ?
**A:** yes

**Q:** Similarly, CC1OC(OCC2OC(Oc3c(-c4ccc(O)cc4)oc4cc(O)cc(O)c4c3=O)C(O)C(O)C2O)C(O)C(O)C1O (stereo not shown) ?
**A:** yes

**Q:** `O=C(c1cc(C(=O)c2ccco2)cc(C(=O)c2ccco2)c1)c1ccco1` , same question.
**A:** yes
